molecular target: Pim3 kinase (Homo sapiens, UniProt Q86V86); assay: Pim3 AlphaScreen assay (high ATP)
Binary call on IC50 with cut-off 70 nM: strictly below means Satisfied, and equality or higher means Not satisfied.

Query: Answer whether the compound CC(C)Oc1cc(F)c(-c2nc(C(=O)Nc3cnccc3[C@H]3C[C@@H](N)[C@](C)(O)[C@@H](C)C3)ccc2F)c(F)c1 has IC50 strictly less than 70 nM
Response: Satisfied

Query: Lab note: confirm whether the reported IC50 for this compound is below 70 nM, equality not counting. compound: C[C@H]1C[C@@H](c2ccncc2NC(=O)c2nc(-c3ncccc3F)c(F)cc2N)C[C@@H](O)C1(C)O (stereo in doubt)
Response: Not satisfied

Query: Please determine if C[C@H]1C[C@@H](c2ccncc2NC(=O)c2ccc(F)c(-c3c(F)cc(C4=CCCC4)cc3F)n2)C[C@@H](N)[C@]1(C)O is below 70 nM in terms of IC50.
Response: Satisfied

Query: Does the reported IC50 of C[C@H]1C[C@@H](c2ccncc2NC(=O)c2ccc(F)c(-c3c(F)ccc(OCCO)c3F)n2)C[C@@H](N)[C@]1(C)O stay below 70 nM?
Response: Satisfied

Query: Input COCCOc1cc(F)c(-c2nc(C(=O)Nc3cnccc3[C@H]3C[C@@H](O)[C@](C)(O)[C@@H](C)C3)ccc2F)c(F)c1 ; condition: IC50 strictly below 70 nM. Does it hold?
Response: Not satisfied

Query: Bench note: check whether C[C@H]1C[C@@H](c2ccncc2NC(=O)c2nc(-c3cccc(OCC(F)(F)F)n3)ccc2N)C[C@@H](O)[C@]1(C)O shows IC50 below 70 nM
Response: Not satisfied

---

biological target: Pim2 kinase (Homo sapiens); assay: Pim2 AlphaScreen assay (high ATP)
Sequence (Q9P1W9 whole entry): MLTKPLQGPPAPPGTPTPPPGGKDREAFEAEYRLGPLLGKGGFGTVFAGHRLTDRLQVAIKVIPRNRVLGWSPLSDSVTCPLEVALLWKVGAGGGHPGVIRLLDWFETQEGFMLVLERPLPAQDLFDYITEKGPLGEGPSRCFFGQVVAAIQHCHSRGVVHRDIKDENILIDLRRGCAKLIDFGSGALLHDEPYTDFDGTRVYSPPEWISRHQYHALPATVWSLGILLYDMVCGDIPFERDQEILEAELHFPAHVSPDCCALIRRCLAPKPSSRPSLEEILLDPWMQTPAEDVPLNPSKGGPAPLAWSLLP
Exercise: state measured IC50 for each of the molecules provided.
Numbers only, in nM.

# count of solved cases: 5
[
  {
    "Cpd Smiles": "C[C@@H]1C[C@H](c2ccncc2NC(=O)c2csc(-c3c(F)cccc3F)n2)C[C@H](N)[C@@]1(C)O",
    "IC50 / nM": 8130
  },
  {
    "Cpd Smiles": "C[C@H]1C[C@@H](c2ccncc2NC(=O)c2nc(-c3cccc(OC(F)F)n3)ccc2N)C[C@@H](O)[C@]1(C)O",
    "IC50 / nM": 20200
  },
  {
    "Cpd Smiles": "C[C@H]1C[C@@H](c2ccncc2NC(=O)c2ccc(F)c(-c3c(F)cc(OC4CCNCC4)cc3F)n2)C[C@@H](O)[C@]1(C)O",
    "IC50 / nM": 56.5
  },
  {
    "Cpd Smiles": "CC(C)Oc1cc(F)c(-c2nc(C(=O)Nc3cnccc3[C@H]3C[C@@H](O)[C@](C)(O)[C@@H](C)C3)c(N)cc2F)c(F)c1",
    "IC50 / nM": 107
  },
  {
    "Cpd Smiles": "C[C@H]1C[C@@H](c2ccncc2NC(=O)c2ccc(F)c(-c3c(F)cc(C4(O)CCC4)cc3F)n2)C[C@@H](O)[C@]1(C)O",
    "IC50 / nM": 120
  }
]

The recorded IC50 for entry C[C@H]1C[C@@H](c2ccncc2NC(=O)c2nc(-c3c(F)cccc3F)ccc2N)C[C@@H](O)[C@@]1(O)CF equals 47

---

target: Pim3 kinase (Homo sapiens, UniProt Q86V86); test: Pim3 AlphaScreen assay (high ATP)
pIC50: −log10 of the molar value.
Label rule, in plain words: pIC50 of 7 and up is 1, under 7 is 0.

Illustrative cases are given below, each with its answer.
[
  {
    "Cpd Smiles": "C[C@H]1C[C@@H](c2ccncc2NC(=O)c2nc(-c3cccc(F)n3)c(F)cc2N)C[C@@H](O)[C@]1(C)O",
    "Cat": 0
  },
  {
    "Cpd Smiles": "C[C@H]1C[C@@H](c2ccncc2NC(=O)c2ccc(F)c(-c3c(F)cc(C(F)F)cc3F)n2)C[C@@H](N)[C@]1(C)O",
    "Cat": 1
  },
  {
    "Cpd Smiles": "C[C@H]1C[C@@H](c2ccncc2NC(=O)c2nc(-c3cccc(F)n3)ccc2N)C[C@@H](O)[C@]1(C)O",
    "Cat": 0
  },
  {
    "Cpd Smiles": "C[C@H]1C[C@@H](c2ccncc2NC(=O)c2ccc(F)c(-c3c(F)cc(C4CCOCC4)cc3F)n2)C[C@@H](O)[C@]1(C)O",
    "Cat": 1
  },
  {
    "Cpd Smiles": "Cc1noc(C)c1-c1cc(F)c(-c2nc(C(=O)Nc3cnccc3[C@H]3C[C@@H](N)[C@](C)(O)[C@@H](C)C3)ccc2F)c(F)c1",
    "Cat": 1
  },
  {
    "Cpd Smiles": "C[C@@H]1C[C@H](c2ccncc2NC(=O)c2ccc(F)c(-c3c(F)cc(C4(O)COC4)cc3F)n2)C[C@H](O)[C@@]1(C)O",
    "Cat": 0
  }
]

Query: Check if pIC50 >= 7 (inclusive). Item: C[C@H]1C[C@@H](c2ccncc2NC(=O)c2nc(-c3c(F)cccc3F)c(F)cc2N)C[C@@H](N)[C@]1(C)O
Response: 1

Query: Textbook exercise: given the entry C[C@H]1C[C@@H](c2ccncc2NC(=O)c2nc(-c3cc(F)ccn3)ccc2N)C[C@@H](O)[C@]1(C)O , state whether its pIC50 is greater than or equal to 7.
Response: 0

Query: Exam item: decide whether the reported pIC50 for COc1cc(F)c(-c2nc(C(=O)Nc3cnccc3[C@H]3C[C@@H](N)[C@](C)(O)[C@@H](C)C3)ccc2F)c(F)c1 is at least 7.
Response: 1

Query: Confirm if pIC50 reported for the compound C[C@H]1C[C@@H](c2ccncc2NC(=O)c2ccc(F)c(-c3c(F)cc(OC4CCOCC4)cc3F)n2)C[C@@H](N)[C@]1(C)O is 7 or above.
Response: 1

Query: Determine whether measured pIC50 meets or exceeds 7 for Cc1cc(F)c(-c2nc(C(=O)Nc3cnccc3[C@H]3C[C@@H](N)[C@](C)(O)[C@@H](C)C3)c(N)cc2F)c(F)c1
Response: 1

---

tested on: KMS11 (human myeloma cell line); assay: Cell proliferation assay (CellTiter-Glo) in KMS11 cells; assay type: cell-based; details: KMS-11, 72 h, Table 5, 3 days, read-out: KMS11-luc EC50
Record form. Attribute: log10(EC50). Fill in for each entry.
All values: base-10 log of EC50 in nM.

[
  {
    "Cpd Smiles": "C[C@H]1C[C@@H](c2ccncc2NC(=O)c2nc(-c3c(F)cccc3F)c(F)cc2N)C[C@@H](N)[C@]1(C)O",
    "log10(EC50)": 1.51
  }
]

Dear colleague, could you please provide log10(EC50) for the compounds listed below?
1. C[C@H]1C[C@@H](c2ccncc2NC(=O)c2ccc(F)c(-c3c(F)cc(C4(F)COC4)cc3F)n2)C[C@@H](N)[C@]1(C)O
2. C[C@H]1C[C@@H](c2ccncc2NC(=O)c2ccc(F)c(-c3c(F)cc(N4CCOCC4)cc3F)n2)C[C@@H](N)[C@]1(C)O

Response:
[2.63, 1.76]

Provide the reported log10(EC50) of each entry below, same order.
1. C[C@H]1C[C@@H](c2ccncc2NC(=O)c2ccc(F)c(-c3c(F)cc(O[C@H]4CCCOC4)cc3F)n2)C[C@@H](N)[C@]1(C)O
2. C[C@H]1C[C@@H](c2ccncc2NC(=O)c2ccc(F)c(-c3c(F)cc(C4(O)CCC4)cc3F)n2)C[C@@H](O)[C@]1(C)O

Response:
[1.34, 3.47]

I have 3 compounds here; please give me log10(EC50) for each one.
1. CC(C)OCc1cc(F)c(-c2nc(C(=O)Nc3cnccc3[C@H]3C[C@@H](N)[C@](C)(O)[C@@H](C)C3)ccc2F)c(F)c1
2. COc1cc(F)c(-c2nc(C(=O)Nc3cnccc3[C@H]3C[C@@H](O)[C@](C)(O)[C@@H](C)C3)ccc2F)c(F)c1
3. CC(C)Oc1cc(F)c(-c2nc(C(=O)Nc3cnccc3[C@H]3C[C@@H](O)[C@](C)(O)[C@@H](C)C3)c(N)cc2F)c(F)c1

Response:
[2.01, 2.58, 3.06]

I would be grateful if you could provide log10(EC50) for each of the following entries.
1. C[C@H]1C[C@@H](c2ccncc2NC(=O)c2ccc(F)c(-c3c(F)cc(C4(O)CCCC4)cc3F)n2)C[C@@H](O)[C@]1(C)O
2. C[C@H]1C[C@@H](c2ccncc2NC(=O)c2ccc(F)c(-c3c(F)cc(OCC4CCOCC4)cc3F)n2)C[C@@H](N)[C@]1(C)O
3. C[C@H]1C[C@@H](c2ccncc2NC(=O)c2ccc(F)c(-c3c(F)cc(C4CCOCC4)cc3F)n2)C[C@@H](O)[C@]1(C)O

Response:
[2.23, 2.52, 2.31]
